target: basic fibroblast growth factor (bFGF) (UniProt P09038 P09038:135-288)
Sequence (P09038 135-288, one chain of several): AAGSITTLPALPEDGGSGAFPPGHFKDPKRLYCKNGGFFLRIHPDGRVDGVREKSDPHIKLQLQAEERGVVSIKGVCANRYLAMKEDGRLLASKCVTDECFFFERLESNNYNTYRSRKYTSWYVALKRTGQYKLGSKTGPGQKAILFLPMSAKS
assay.procedure: filter; PBS, 0.01% HSA, 1 mM DTT, 37 C; +/-0.2
condition.label: tags: Bachem California, 18 kDa, 154 aa; 125I-labeled for receptor assays
recorded.endpoint: Kd

[[record]]
binder = "2'-NH2 59A (ssRNA, 2'-NH2 pyrimidines) RNA: GGGAGACAAGAAUAACGCUCAAUGUGUGGAAGGGUACCUGAGUGGGGAUGGGUUCGACAGGAGGCUCACAACAGGC"
recorded_endpoint = "Kd"
recorded_result = "1.2 nM"

